Examples of compounds with documented IC50 follow.
Tested on: Phosphorylation of STAT6 in human PBMC (CD19+ B cells)
Assay: Phosphorylated STAT6 (pSTAT6) flow cytometry assay in human PBMC, IL-4 stimulated
Type: cell-based
Conditions: compound 1 hour, 1 ng/ml IL-4 for 15 minutes, read-out: STAT6 IL4 pSTAT6 assay in PBMC: Average IC50

compound	IC50
CN(C)C(=O)c1cc2ccc(C3=CCCN(C(=O)CCC(=O)O)C3)cc2[nH]1	> 100 µM
CN(C)C(=O)c1cc2ccc(C3=CCCN(C(=O)C4(C#N)CC4)C3)cc2[nH]1	10 to 100 µM
CN(C)C(=O)c1cc2cc(C3=CCCN(C(=O)CCn4ccnn4)C3)ccc2[nH]1	> 100 µM
C[C@@H](Cn1ccnn1)C(=O)N1CCC=C(c2ccc3oc(C(=O)N(C)C)cc3c2)C1 (single isomer, unassigned)	> 100 µM
COC(=O)C1CCC(c2ccc3oc(C(=O)N(C)C)cc3c2)CN1C(=O)CCn1ccnn1 (stereo not drawn) [Example I-150]	> 100 µM
CN(C)C(=O)c1cc2ccc(C3=CCCN(C(=O)C4CC4F)C3)cc2[nH]1 (stereo not drawn) [Example I-26]	> 100 µM
CN(C)C(=O)c1cc2cc(C3=CCCN(C(=O)C4Cc5ccccc5CN4C=O)C3)ccc2[nH]1 (stereo not drawn)	> 100 µM
CN(C)C(=O)c1cc2cc(C3=CCCN(C(=O)CCn4ccnn4)C3)cc(CN3CCCCC3)c2o1	10 to 100 µM
CNc1ccc(-c2cc(C3=CCCN(C(=O)CCn4ccnn4)C3)cc3[nH]c(C(=O)N(C)C)cc23)c(Cl)c1	< 0.1 µM
COC(=O)C1CCC(c2ccc3oc(C(=O)N(C)C)cc3c2)CN1C(=O)CCn1ccnn1 (mixture of isomers) [Example I-1]	> 100 µM
CNCc1cccc2c1CC(C(=O)N1CCC=C(c3ccc4oc(C(=O)N(C)C)cc4c3)C1)N(C=O)C2 (stereo not drawn)	> 100 µM
COC(=O)C1CCC(c2ccc3oc(C(=O)N(C)C)cc3c2)CN1C(=O)CCn1ccnn1 (stereo not drawn) [Example I-149]	> 100 µM
CC1CCCN(C(=O)c2cc3ccc(C4=CCCN(C(=O)CCn5ccnn5)C4)cc3[nH]2)C1 (stereo not drawn) [Example I-126]	> 100 µM
CN(C)C(=O)c1cc2ccc(C3=CCCN(C(=O)C4CC(O)C4)C3)cc2[nH]1 (stereo not drawn)	10 to 100 µM
CN(C)C(=O)c1cc2ccc(C3=CCCN(C(=O)CCc4ccccn4)C3)cc2[nH]1	10 to 100 µM

====

Test system: Phosphorylation of STAT6 in human PBMC (CD19+ B cells)
Experiment: Phosphorylated STAT6 (pSTAT6) flow cytometry assay in human PBMC, IL-4 stimulated
Assay type: cell-based
Details: compound 1 hour, 1 ng/ml IL-4 for 15 minutes, read-out: STAT6 IL4 pSTAT6 assay in PBMC: Average IC50
Property: IC50; scope: individual compounds

compound	IC50
COC(=O)[C@H]1CC[C@@H](c2ccc3oc(C(=O)N(C)C)cc3c2)CN1C(=O)CCn1ccnn1 (single isomer, unassigned)	> 100 µM
CN(C)C(=O)c1cc2cc([C@@H]3CN(C(=O)CCn4ccnn4)CC[C@H]3O)ccc2o1 (single isomer, unassigned)	> 100 µM
CN(C)C(=O)c1cc2cc(C3CCC(CO)N(C(=O)CCn4ccnn4)C3)ccc2o1 (stereo not drawn) [Example I-155]	> 100 µM
CN(C)C(=O)c1cc2cc(C3=CCCN(C(=O)CCc4ccc5c(c4)OCCO5)C3)ccc2o1	> 100 µM
COC(=O)c1cnn(-c2cc(C3=CCCN(C(=O)CCn4ccnn4)C3)cc3cc(C(=O)N(C)C)oc23)c1	> 100 µM
CN(C)C(=O)c1cc2cc(C3=CCCN(C(=O)CCc4ccc5c(c4)OCO5)C3)ccc2o1	> 100 µM
CN(C)C(=O)c1cc2ccc(C3=CCCN(C(=O)c4snnc4C4CC4)C3)cc2[nH]1	> 100 µM
CN(C)C(=O)c1cc2cc(C3=CCCN(C(=O)CCn4ccnn4)C3)cc(C3CCNCC3)c2o1	10 to 100 µM
CN(C)C(=O)c1cc2cc(C3=CCCN(C(=O)Cc4cncnc4)C3)ccc2o1	> 100 µM
O=C(CCn1ccnn1)N1CCC=C(c2ccc3cc(C(=O)N4CCCCC4)[nH]c3c2)C1	10 to 100 µM
CN(C)C(=O)c1cc2cc(C3=CCCN(C(=O)Cn4ccnc4)C3)ccc2o1	> 100 µM
COC(=O)c1ccc(OCC(=O)N2CCC=C(c3ccc4cc(C(=O)N(C)C)[nH]c4c3)C2)cc1	> 100 µM
CN(C)C(=O)c1cc2ccc(C3=CCCN(C(=O)c4ccc5c(n4)OCCO5)C3)cc2[nH]1	> 100 µM
CCCN(C)C(=O)c1cc2cc(C3=CCCN(C(=O)CCn4ccnn4)C3)ccc2o1	> 100 µM
CN(C)C(=O)c1cc2ccc(C3=CCCN(C(=O)C4Cc5ccccc5CN4C=O)C3)cc2[nH]1 (stereo not drawn)	0.1 to 1 µM
CN(C)C(=O)c1cc2ccc(C3=CCCN(C(=O)C4CCN(c5ncccc5C(=O)O)CC4)C3)cc2[nH]1	10 to 100 µM
CN(C)C(=O)c1cc2ccc(C3=CCCN(C(=O)c4cc(=O)c(OCc5ccccc5)c[nH]4)C3)cc2[nH]1	> 100 µM
CCC[C@@H](C(=O)N1CCC=C(c2ccc3cc(C(=O)N(C)C)[nH]c3c2)C1)N1Cc2ccccc2C1=O	10 to 100 µM
CN(C)C(=O)c1cc2ccc(C3=CCCN(C(=O)[C@H]4Cc5ccccc5CN4)C3)cc2[nH]1	1 to 10 µM
CN(C)C(=O)c1nc2ccc(C3=CCCN(C(=O)CCn4ccnn4)C3)cc2o1	> 100 µM
CN(C)C(=O)c1cc2ccc(C3=CCCN(C(=O)C4(c5ccc(Cl)cc5)CC(O)C4)C3)cc2[nH]1 (stereo not drawn)	> 100 µM
CN(C)C(=O)c1cc2ccc(C3=CCCN(C(=O)c4cc5occc5n4-c4ccccc4)C3)cc2[nH]1	10 to 100 µM
CN(C)C(=O)c1cc2cc(C3=CCCN(C(=O)CCc4cn5cccnc5n4)C3)ccc2o1	> 100 µM
CN(C)C(=O)c1cc2cc(C3=CCCN(C(=O)CCn4ccnn4)C3)ncc2[nH]1	10 to 100 µM
CN(C)C(=O)c1cc2cc(C3=CCCN(C(=O)CCc4ncns4)C3)ccc2o1	> 100 µM
CN(C)C(=O)c1cc2cc(C3=CCCN(C(=O)CCc4cccnc4)C3)ccc2o1	> 100 µM
CN(C)C(=O)c1cc2ccc(C3=CCCN(C(=O)CNC(=O)c4cccc(C(F)(F)F)c4)C3)cc2[nH]1	> 100 µM
CN(C)C(=O)c1cc2cc(C3=CCCN(C(=O)CCc4ccnnc4)C3)ccc2o1	> 100 µM
CN(C)C(=O)c1cc2ccc(C3=CCCN(C(=O)c4ccccc4C(=O)c4ccc(F)cc4)C3)cc2[nH]1	> 100 µM
Cc1nc(CC(=O)N2CCC=C(c3ccc4cc(C(=O)N(C)C)[nH]c4c3)C2)no1	10 to 100 µM

====

System: Phosphorylation of STAT6 in human PBMC (CD19+ B cells)
Assay: Phosphorylated STAT6 (pSTAT6) flow cytometry assay in human PBMC, IL-4 stimulated
Type: cell-based
Conditions: compound 1 hour, 1 ng/ml IL-4 for 15 minutes, read-out: STAT6 IL4 pSTAT6 assay in PBMC: Average IC50
Description: Example 2. Phosphorylated STAT6 (pSTAT6) Flow Cytometry Assay in Human PBMC Phosphorylation of STAT6 in human PBMC was quantitatively measured using flow cytometry technology. […] Cells were then washed once with FACS buffer and resuspended in 200 μl of FACS buffer for flow cytometry to quantify pSTAT6 in CD19+ B cells. The data was analyzed by GraphPad Prism and the dose dependent pSTAT6 inhibition was fit using the four-parameter inhibitor vs. response nonlinear regression.
The following molecules are shown together with reported IC50 values.

molecule	experimental.system	IC50
CN(C)C(=O)c1cc2ccc(C3=CCCN(C(=O)c4n[nH]cc4I)C3)cc2[nH]1	Phosphorylation of STAT6 in human PBMC (CD19+ B cells)	10 to 100 µM
CNS(=O)(=O)c1cccc(C(=O)N2CCC=C(c3ccc4cc(C(=O)N(C)C)[nH]c4c3)C2)c1	Phosphorylation of STAT6 in human PBMC (CD19+ B cells)	> 100 µM
CN(C)C(=O)c1cc2ccc(C3=CCCN(C(=O)CC(C)(C)NCc4ccccc4)C3)cc2[nH]1	Phosphorylation of STAT6 in human PBMC (CD19+ B cells)	> 100 µM
CCC(=O)N1Cc2ccccc2CC1C(=O)N1CCC=C(c2ccc3oc(C(=O)N(C)C)cc3c2)C1 (stereo not drawn) [Example I-189]	Phosphorylation of STAT6 in human PBMC (CD19+ B cells)	> 100 µM
CN(C)C(=O)c1cc2ccc(C3=CCCN(C(=O)CCCn4c(=O)[nH]c5ccccc54)C3)cc2[nH]1	Phosphorylation of STAT6 in human PBMC (CD19+ B cells)	> 100 µM
CN(C)C(=O)c1cc2cc(C3=CCCN(C(=O)C4Cc5c(cccc5-c5ccc(O)cc5)CN4C=O)C3)ccc2o1 (stereo not drawn)	Phosphorylation of STAT6 in human PBMC (CD19+ B cells)	> 100 µM
CN(C)C(=O)c1cc2cc(C3=CCCN(C(=O)Cc4cccc5ccccc45)C3)ccc2o1	Phosphorylation of STAT6 in human PBMC (CD19+ B cells)	> 100 µM
COC(=O)C1CCC(c2ccc3oc(C(=O)N(C)C)cc3c2)CN1C(=O)CCn1ccnn1 (mixture of isomers) [Example I-2]	Phosphorylation of STAT6 in human PBMC (CD19+ B cells)	> 100 µM
COc1ccc(CC(=O)N2CCC=C(c3ccc4oc(C(=O)N(C)C)cc4c3)C2)cc1C#N	Phosphorylation of STAT6 in human PBMC (CD19+ B cells)	> 100 µM
CN(C)C(=O)c1cc2ccc(C3=CCCN(C(=O)c4ccnnc4O)C3)cc2[nH]1	Phosphorylation of STAT6 in human PBMC (CD19+ B cells)	> 100 µM
CN(C)C(=O)c1cc2ccc(C3=CCCN(C(=O)c4cc(C#N)ccc4Br)C3)cc2[nH]1	Phosphorylation of STAT6 in human PBMC (CD19+ B cells)	> 100 µM
CN(C)C(=O)c1cc2cc(C3=CCCN(C(=O)Cc4coc5ccccc45)C3)ccc2o1	Phosphorylation of STAT6 in human PBMC (CD19+ B cells)	> 100 µM
CN(C)C(=O)c1cc2ccc(C3=CCCN(C(=O)c4ccccc4CSc4ccccc4)C3)cc2[nH]1	Phosphorylation of STAT6 in human PBMC (CD19+ B cells)	10 to 100 µM
CC(=O)N1CCC(c2cc(C3=CCCN(C(=O)CCn4ccnn4)C3)cc3cc(C(=O)N(C)C)oc23)CC1	Phosphorylation of STAT6 in human PBMC (CD19+ B cells)	10 to 100 µM
Cc1cn(CCC(=O)N2CCC=C(c3ccc4cc(C(=O)N(C)C)[nH]c4c3)C2)nn1	Phosphorylation of STAT6 in human PBMC (CD19+ B cells)	> 100 µM
